Kindly state residual activity for each of the entries shown.
# assaySystem: Testis-specific serine/threonine-protein kinase 2 (Homo sapiens)
# details: at 1 µM
Field: numeric (%). Do not append units.

Qu. Item: O=C(c1ccccc1)c1ccc(N2CCOCC2)cc1O Test system: Testis-specific serine/threonine-protein kinase 2 (Homo sapiens) Read-out: residual activity Value: ?
Ans. 87

Qu. Item: O=C(Nc1cccc(Nc2nccc(Nc3cccc(C(F)(F)F)c3)n2)c1)C1CC1 Test system: Testis-specific serine/threonine-protein kinase 2 (Homo sapiens) Read-out: residual activity Value: ?
Ans. 86

Qu. Item: COc1cc2ncnc(Nc3ccc(O)c(Br)c3)c2cc1OC Test system: Testis-specific serine/threonine-protein kinase 2 (Homo sapiens) Read-out: residual activity Value: ?
Ans. 93

Qu. Item: c1ccc(-c2cnc(Nc3ccc(OCCN4CCCC4)cc3)s2)cc1 Test system: Testis-specific serine/threonine-protein kinase 2 (Homo sapiens) Read-out: residual activity Value: ?
Ans. 100

Qu. Item: Nc1n[nH]c2nnc(-c3c(-c4ccccc4)nn4ccccc34)cc12 Test system: Testis-specific serine/threonine-protein kinase 2 (Homo sapiens) Read-out: residual activity Value: ?
Ans. 104

Qu. Item: CC(C)(C)c1cc(C=C(C#N)C#N)cc(Br)c1O Test system: Testis-specific serine/threonine-protein kinase 2 (Homo sapiens) Read-out: residual activity Value: ?
Ans. 113

Qu. Item: O=C1Cc2c([nH]c3ccc(Br)cc23)-c2ccccc2N1 Test system: Testis-specific serine/threonine-protein kinase 2 (Homo sapiens) Read-out: residual activity Value: ?
Ans. 96

Qu. Item: CC(C)[C@H](CO)Nc1nc(Nc2cc(N)cc(Cl)c2)c2ncn(C(C)C)c2n1 Test system: Testis-specific serine/threonine-protein kinase 2 (Homo sapiens) Read-out: residual activity Value: ?
Ans. 91

Qu. Item: O=c1c2ccccc2[nH]c(=S)n1CCN1CCC(=C(c2ccc(F)cc2)c2ccc(F)cc2)CC1 Test system: Testis-specific serine/threonine-protein kinase 2 (Homo sapiens) Read-out: residual activity Value: ?
Ans. 96

Qu. Item: O=C(O)/C=C/c1cc(Br)c(Br)c(Br)c1Br Test system: Testis-specific serine/threonine-protein kinase 2 (Homo sapiens) Read-out: residual activity Value: ?
Ans. 96

Qu. Item: O=C1NC(=O)c2c1c1c3ccccc3[nH]c1c1[nH]c3cc(Br)ccc3c21 Test system: Testis-specific serine/threonine-protein kinase 2 (Homo sapiens) Read-out: residual activity Value: ?
Ans. 102

Qu. Item: Cn1cnc2cc3c(Nc4cccc(Br)c4)ncnc3cc21 Test system: Testis-specific serine/threonine-protein kinase 2 (Homo sapiens) Read-out: residual activity Value: ?
Ans. 100

Qu. Item: Cn1sc(=O)n(Cc2ccccc2)c1=O Test system: Testis-specific serine/threonine-protein kinase 2 (Homo sapiens) Read-out: residual activity Value: ?
Ans. 88

Qu. Item: Cc1ccc(S(=O)(=O)/C=C/C#N)cc1 Test system: Testis-specific serine/threonine-protein kinase 2 (Homo sapiens) Read-out: residual activity Value: ?
Ans. 92

Qu. Item: COc1cc2ncnc(Nc3ccc(NC(=O)c4ccccc4)cc3)c2cc1OC Test system: Testis-specific serine/threonine-protein kinase 2 (Homo sapiens) Read-out: residual activity Value: ?
Ans. 106

Qu. Item: O=C(Nc1nc2ccccc2n1CCN1CCOCC1)c1cccc([N+](=O)[O-])c1 Test system: Testis-specific serine/threonine-protein kinase 2 (Homo sapiens) Read-out: residual activity Value: ?
Ans. 102

Qu. Item: NC(=O)c1ccc2[nH]c(-c3ccc(Oc4ccc(Cl)cc4)cc3)nc2c1 Test system: Testis-specific serine/threonine-protein kinase 2 (Homo sapiens) Read-out: residual activity Value: ?
Ans. 98

Qu. Item: COc1ccc(Cl)cc1NC(=O)Nc1cc(C)nc2ccccc12 Test system: Testis-specific serine/threonine-protein kinase 2 (Homo sapiens) Read-out: residual activity Value: ?
Ans. 100

Qu. Item: Nc1cccc(-c2cc3c(Oc4cccc(O)c4)ncnc3[nH]2)c1 Test system: Testis-specific serine/threonine-protein kinase 2 (Homo sapiens) Read-out: residual activity Value: ?
Ans. 82

Qu. Item: N#Cc1cnc2cnc(NCc3cccnc3)cc2c1Nc1ccc(F)c(Cl)c1 Test system: Testis-specific serine/threonine-protein kinase 2 (Homo sapiens) Read-out: residual activity Value: ?
Ans. 14

Qu. Item: O=C1NC(=O)/C(=C\c2ccc3nccnc3c2)S1 Test system: Testis-specific serine/threonine-protein kinase 2 (Homo sapiens) Read-out: residual activity Value: ?
Ans. 90

Qu. Item: O=[N+]([O-])/C=C/c1ccc2c(c1)OCO2 Test system: Testis-specific serine/threonine-protein kinase 2 (Homo sapiens) Read-out: residual activity Value: ?
Ans. 87

Qu. Item: CC(C)(C)n1nc(Cc2cccc3ccccc23)c2c(N)ncnc21 Test system: Testis-specific serine/threonine-protein kinase 2 (Homo sapiens) Read-out: residual activity Value: ?
Ans. 104

###

# assaySystem: Inhibitor of nuclear factor kappa-B kinase subunit beta (Homo sapiens) (UniProt O14920)
# Sequence (O14920 whole entry): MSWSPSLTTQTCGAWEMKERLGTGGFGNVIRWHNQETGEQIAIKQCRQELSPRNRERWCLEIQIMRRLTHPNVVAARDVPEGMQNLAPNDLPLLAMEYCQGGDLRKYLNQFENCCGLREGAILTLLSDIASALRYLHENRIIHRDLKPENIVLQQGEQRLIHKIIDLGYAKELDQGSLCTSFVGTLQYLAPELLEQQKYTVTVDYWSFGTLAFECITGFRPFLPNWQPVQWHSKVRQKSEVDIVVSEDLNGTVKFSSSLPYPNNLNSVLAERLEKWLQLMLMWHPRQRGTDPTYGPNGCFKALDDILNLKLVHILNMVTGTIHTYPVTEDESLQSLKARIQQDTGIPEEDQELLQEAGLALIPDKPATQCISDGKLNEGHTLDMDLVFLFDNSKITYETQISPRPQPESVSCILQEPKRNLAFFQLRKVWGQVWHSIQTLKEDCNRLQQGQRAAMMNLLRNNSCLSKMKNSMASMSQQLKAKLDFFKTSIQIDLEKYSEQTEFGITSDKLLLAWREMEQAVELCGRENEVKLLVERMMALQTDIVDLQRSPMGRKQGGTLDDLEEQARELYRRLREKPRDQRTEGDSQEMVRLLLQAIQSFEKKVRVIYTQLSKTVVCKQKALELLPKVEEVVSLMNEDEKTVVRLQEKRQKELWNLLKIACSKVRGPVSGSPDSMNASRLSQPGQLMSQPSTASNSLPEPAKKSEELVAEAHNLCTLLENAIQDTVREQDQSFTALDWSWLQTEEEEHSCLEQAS
# details: at 1 µM
Kindly state residual activity for each of the entries shown.
Field: numeric (%). Do not append units.

Qu. residual activity for CCc1nc(-c2ccc(OC)cc2)[nH]c1-c1ccncc1 ?
Ans. 119

Qu. residual activity for CC(C)(C)c1cc(C=C(C#N)C#N)cc(Br)c1O ?
Ans. 98

Qu. residual activity for COc1cc2ncnc(Nc3ccc(OCc4ccccc4)cc3)c2cc1OC ?
Ans. 117

Qu. residual activity for COC(=O)[C@@]1(O)C[C@H]2O[C@]1(C)n1c3ccccc3c3c4c(c5c6ccccc6n2c5c31)C(=O)NC4 ?
Ans. 17

Qu. residual activity for CC(C)[C@H](CO)Nc1nc(Nc2cccc(Cl)c2)c2ncn(C(C)C)c2n1 ?
Ans. 116

Qu. residual activity for O=C1c2ccccc2-c2nc3nnnn3nc21 ?
Ans. 111

Qu. residual activity for O=c1[nH]c2ccccc2n1C1CCN(Cc2ccc(-c3nc4cc5[nH]cnc5cc4nc3-c3ccccc3)cc2)CC1 ?
Ans. 101

###

Kindly state residual activity for each of the entries shown.
# assaySystem: Tyrosine-protein kinase Fes/Fps (Homo sapiens) (UniProt P07332)
# Sequence (P07332 whole entry): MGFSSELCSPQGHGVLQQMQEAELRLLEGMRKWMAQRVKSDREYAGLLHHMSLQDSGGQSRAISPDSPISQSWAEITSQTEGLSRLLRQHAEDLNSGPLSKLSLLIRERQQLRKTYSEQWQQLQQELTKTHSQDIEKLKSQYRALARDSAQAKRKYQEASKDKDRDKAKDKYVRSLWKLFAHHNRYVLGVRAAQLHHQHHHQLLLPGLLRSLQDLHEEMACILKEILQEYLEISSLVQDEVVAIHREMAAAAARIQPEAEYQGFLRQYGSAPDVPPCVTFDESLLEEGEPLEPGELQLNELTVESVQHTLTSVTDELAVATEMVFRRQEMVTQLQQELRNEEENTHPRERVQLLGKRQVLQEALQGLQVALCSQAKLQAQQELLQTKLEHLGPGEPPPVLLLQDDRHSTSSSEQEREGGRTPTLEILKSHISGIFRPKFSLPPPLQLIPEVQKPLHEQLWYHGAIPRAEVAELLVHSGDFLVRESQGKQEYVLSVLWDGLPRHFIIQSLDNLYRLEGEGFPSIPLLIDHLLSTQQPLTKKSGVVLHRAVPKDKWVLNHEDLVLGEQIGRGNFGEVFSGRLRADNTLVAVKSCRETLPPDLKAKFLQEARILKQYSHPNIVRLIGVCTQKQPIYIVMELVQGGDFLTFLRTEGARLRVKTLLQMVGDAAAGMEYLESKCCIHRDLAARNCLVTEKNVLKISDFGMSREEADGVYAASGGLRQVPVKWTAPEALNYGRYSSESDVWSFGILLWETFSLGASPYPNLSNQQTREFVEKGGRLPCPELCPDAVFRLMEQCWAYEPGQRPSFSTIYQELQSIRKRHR
# details: at 1 µM
Field: numeric (%). Do not append units.

Qu. Item: O=C1Nc2ccc3ncsc3c2/C1=C/c1c[nH]cn1 Test system: Tyrosine-protein kinase Fes/Fps (Homo sapiens) (UniProt P07332) Read-out: residual activity Value: ?
Ans. 62

Qu. Item: CC(C)(C)c1cc(C=C(C#N)C#N)cc(Br)c1O Test system: Tyrosine-protein kinase Fes/Fps (Homo sapiens) (UniProt P07332) Read-out: residual activity Value: ?
Ans. 125

Qu. Item: CCc1nc(-c2ccc(OC)cc2)[nH]c1-c1ccncc1 Test system: Tyrosine-protein kinase Fes/Fps (Homo sapiens) (UniProt P07332) Read-out: residual activity Value: ?
Ans. 109

Qu. Item: COC(=O)[C@@]1(O)C[C@H]2O[C@]1(C)n1c3ccccc3c3c4c(c5c6ccccc6n2c5c31)C(=O)NC4 Test system: Tyrosine-protein kinase Fes/Fps (Homo sapiens) (UniProt P07332) Read-out: residual activity Value: ?
Ans. 7

Qu. Item: O=[N+]([O-])/C=C/c1ccc2c(c1)OCO2 Test system: Tyrosine-protein kinase Fes/Fps (Homo sapiens) (UniProt P07332) Read-out: residual activity Value: ?
Ans. 113

Qu. Item: O=C1NC(=O)c2c1c1c3ccccc3n3c1c1c2c2ccccc2n1C1CCC3O1 Test system: Tyrosine-protein kinase Fes/Fps (Homo sapiens) (UniProt P07332) Read-out: residual activity Value: ?
Ans. 90

###

Kindly state residual activity for each of the entries shown.
# assaySystem: ALK tyrosine kinase receptor (Homo sapiens)
# details: at 10 µM

Qu. residual activity for COc1ccc2c(c[n+](C)c3c4cc5c(cc4ccc23)OCO5)c1OC ?
Ans. 65%

Qu. residual activity for COc1cc(OC)c(/C=C2\C(=O)Nc3ccccc32)c(OC)c1 ?
Ans. 75%

Qu. residual activity for c1cc(-c2cnn3cc(-c4ccc(OCCN5CCCCC5)cc4)cnc23)ccn1 ?
Ans. 61%

Qu. residual activity for COC(=O)[C@@]1(O)C[C@H]2O[C@]1(C)n1c3ccccc3c3c4c(c5c6ccccc6n2c5c31)C(=O)NC4 ?
Ans. 1%

Qu. residual activity for O=c1[nH]c2ccccc2n1C1CCN(Cc2ccc(-c3nc4cc5[nH]cnc5cc4nc3-c3ccccc3)cc2)CC1 ?
Ans. 63%

###

Kindly state residual activity for each of the entries shown.
# assaySystem: Ephrin type-B receptor 4 (Homo sapiens)
# details: at 1 µM
# Description: Millipore: Percentage of residual kinase activity of EPHB4 at 1uM relative to control. Control inhibitor: PP2 at 30.0uM. Buffer: 8 mM MOPS pH 7.0, 0.2 mM EDTA, 10 mM MnCl2
Field: numeric (%). Do not append units.

Qu. Item: C[S+]([O-])c1ccc(-c2nc(-c3ccc(F)cc3)c(-c3ccncc3)[nH]2)cc1 (stereo not drawn) Test system: Ephrin type-B receptor 4 (Homo sapiens) Read-out: residual activity Value: ?
Ans. 107

Qu. Item: O=C1c2ccccc2-c2nc3nnnn3nc21 Test system: Ephrin type-B receptor 4 (Homo sapiens) Read-out: residual activity Value: ?
Ans. 118

Qu. Item: c1cc(-c2cnn3cc(-c4ccc(OCCN5CCCCC5)cc4)cnc23)ccn1 Test system: Ephrin type-B receptor 4 (Homo sapiens) Read-out: residual activity Value: ?
Ans. 20
